# Assay Explanation: Chiral plasma pharmacokinetics of MDMA and its phase I and II metabolites after controlled MDMA administration
# Assay type: in vivo, human
# Experimental Setup: IMs
Where a name gives a salt, the structure may show the parent alone.
Consider the cut-off 0.1. If the recorded metabolite/MDMA ratio, mean constant (after approximately 2 h) is strictly smaller, the label is class 1; if not, the label is class 0.

[[record]]
molecule = "CN[C@H](C)Cc1ccc(OS(=O)(=O)O)c(OC)c1 [R-HMMA sulfate]"
category = "class 0"

[[record]]
molecule = "CN[C@@H](C)Cc1ccc(O)c(OS(=O)(=O)O)c1 [S-DHMA 3-sulfate]"
category = "class 0"

[[record]]
molecule = "CN[C@@H](C)Cc1ccc(OS(=O)(=O)O)c(O)c1 [S-DHMA 4-sulfate]"
category = "class 1"

[[record]]
molecule = "CNC(C)Cc1ccc(OC2OC(C(=O)O)C(O)C(O)C2O)c(OC)c1 (centres unmarked) [S-HMMA glucuronide]"
category = "class 0"


Q: Problem: For the molecule CNC(C)Cc1ccc(OC2OC(C(=O)O)C(O)C(O)C2O)c(OC)c1 (centres unmarked) [R-HMMA glucuronide] , is metabolite/MDMA ratio, mean constant (after approximately 2 h) under 0.1?
Ans: class 1

Q: Is the reported metabolite/MDMA ratio, mean constant (after approximately 2 h) for CN[C@@H](C)Cc1ccc(OS(=O)(=O)O)c(OC)c1 [S-HMMA sulfate] strictly below 0.1?
Ans: class 0

Q: Is 0.1 strictly greater than the molecule's reported metabolite/MDMA ratio, mean constant (after approximately 2 h)? molecule: CN[C@H](C)Cc1ccc(OS(=O)(=O)O)c(O)c1 [R-DHMA 4-sulfate]
Ans: class 1

###

# Assay Explanation: Chiral plasma pharmacokinetics of MDMA and its phase I and II metabolites after controlled MDMA administration
# Format: in vivo, human
# Experimental Setup: placebo+MDMA (125 mg), CYP2D6 IM, n=3, plasma
Structures can show the parent of a compound that is named as a salt.
Readout Name: AUCtotal R

[[record]]
compound = "CN[C@H](C)Cc1ccc(O)c(OS(=O)(=O)O)c1 [R-DHMA 3-sulfate]"
result = "2.6 (2.4) μmol/l*h-1"

[[record]]
compound = "CN[C@H](C)Cc1ccc2c(c1)OCO2"
result = "14.5 (4.3) μmol/l*h-1"

[[record]]
compound = "CN[C@H](C)Cc1ccc(OS(=O)(=O)O)c(OC)c1 [R-HMMA sulfate]"
result = "3.4 (1.3) μmol/l*h-1"


Input CN[C@H](C)Cc1ccc(OS(=O)(=O)O)c(O)c1 [R-DHMA 4-sulfate] . Output AUCtotal R: 1.5 (1.0) μmol/l*h-1

// recorded AUCtotal R for CNC(C)Cc1ccc(OC2OC(C(=O)O)C(O)C(O)C2O)c(OC)c1 (centres unmarked) [R-HMMA glucuronide] : 2.0 (1.7) μmol/l*h-1

###

# Assay Explanation: Chiral plasma pharmacokinetics of MDMA and its phase I and II metabolites after controlled MDMA administration
# Format: in vivo, human
# Experimental Setup: both sexes, human, plasma, oral, bupropion+MDMA (125 mg), CYP2D6 EM (EM/Bup), n=13, plasma; read-out: Cmax S
Where a name gives a salt, the structure may show the parent alone.
Readout Name: Cmax (nM)
Express your answer in nM, writing the number without its unit.

get_value(item= CNC(C)Cc1ccc(OC2OC(C(=O)O)C(O)C(O)C2O)c(OC)c1 (stereo not drawn) [S-HMMA glucuronide] , readout=Cmax) returns 88

Entry CC(N)Cc1ccc2c(c1)OCO2 (stereo not drawn) , Cmax reported as 31

Given item CN[C@@H](C)Cc1ccc(O)c(OS(=O)(=O)O)c1 [S-DHMA 3-sulfate] , the value recorded as its Cmax is 200

Per the record, CN[C@@H](C)Cc1ccc(OS(=O)(=O)O)c(O)c1 [S-DHMA 4-sulfate] has Cmax of 21

// CN[C@@H](C)Cc1ccc2c(c1)OCO2 : Cmax value = 650

According to the records, this molecule CN[C@@H](C)Cc1ccc(OS(=O)(=O)O)c(OC)c1 [S-HMMA sulfate] displays Cmax of 110
